System: Ileum
Assay Comment: Inhibition of bradykinin-induced Hartley guinea pig ileum contraction at 1 uM relative to control
Format: functional
Experimental Conditions: Cavia porcellus
Outcome Measure: inhibition at 1 µM
Quick note: number first, unit second.

COc1ccc(CNC(=O)/C=C\C(=O)N2CCN(C(c3ccccc3)c3ccc(Cl)cc3)CC2)cc1 (stereo not drawn) | 74.1%
O=C(/C=C\C(=O)N1CCN(C(c2ccc(F)cc2)c2ccc(F)cc2)CC1)NC1CCCCC1 | 65.4%
COc1ccc(CNC(=O)CCC(=O)N2CCN(C(c3ccccc3)c3ccc(Cl)cc3)CC2)cc1 (stereo not drawn) | 57.2%
CC(CC(=O)NC1CCCCC1)CC(=O)N1CCN(C(c2ccccc2)c2ccc(Cl)cc2)CC1 (stereo not drawn) | 60.8%
COc1cc(CNC(=O)CC(C)(C)CC(=O)N2CCN(C(c3ccccc3)c3ccc(Cl)cc3)CC2)cc(OC)c1OC (stereo not drawn) | 49.1%

Could I get inhibition at 1 µM for every one of these entries?
1. O=C(CCC(=O)N1CCN(C(c2ccccc2)c2ccc(Cl)cc2)CC1)NC1CCCCC1 (stereo not drawn)
2. COc1ccc(CNC(=O)CC(C)(C)CC(=O)N2CCN(C(c3ccccc3)c3ccc(Cl)cc3)CC2)cc1 (stereo not drawn)
3. O=C(/C=C\C(=O)N1CCN(C(c2ccccc2)c2ccc(Cl)cc2)CC1)NC1CCCCC1 (stereo not drawn)
4. Cc1ccc(CNC(=O)CCC(=O)N2CCCN(C(c3ccccc3)c3ccc(Cl)cc3)CC2)cc1 (stereo not drawn)
5. COc1cc(CNC(=O)CCC(=O)N2CCCN(C(c3ccccc3)c3ccc(Cl)cc3)CC2)cc(OC)c1OC (stereo not drawn)

Result:
79%
31.6%
57.4%
67.7%
72.6%

----------
Test system: Ileum
Assay Comment: Inhibition of bradykinin-induced Hartley guinea pig ileum contraction at 1 uM relative to control
Format: functional
Experimental Conditions: Cavia porcellus
Would you mind labelling by inhibition at 1 µM? At or over 70% is y, under is n.

Consider the following illustrative entries.
CC(CCc1ccccc1)NC(=O)/C=C\C(=O)N1CCCN(C(c2ccccc2)c2ccc(Cl)cc2)CC1 (stereo not drawn) | y
COc1ccc(CNC(=O)/C=C\C(=O)N2CCN(C(c3ccc(F)cc3)c3ccc(F)cc3)CC2)cc1 | y
COc1cc(CNC(=O)CCC(=O)N2CCN(C(c3ccccc3)c3ccc(Cl)cc3)CC2)cc(OC)c1OC (stereo not drawn) | n
COc1cc(CNC(=O)CC(C)CC(=O)N2CCN(C(c3ccccc3)c3ccc(Cl)cc3)CC2)cc(OC)c1OC (stereo not drawn) | n
Cc1ccc(CNC(=O)CC(C)(C)CC(=O)N2CCN(C(c3ccccc3)c3ccc(Cl)cc3)CC2)cc1 (stereo not drawn) | n
CC(CC(=O)NC1CCCCC1)CC(=O)N1CCCN(C(c2ccccc2)c2ccc(Cl)cc2)CC1 (stereo not drawn) | y
O=C(/C=C\C(=O)N1CCCN(C(c2ccccc2)c2ccc(Cl)cc2)CC1)NC1CCCCC1 (stereo not drawn) | n

// next entry
Problem: Does the compound COc1ccc(CNC(=O)CC(C)CC(=O)N2CCN(C(c3ccccc3)c3ccc(Cl)cc3)CC2)cc1 (stereo not drawn) have recorded inhibition at 1 µM that is 70% or more?
Result: n

Provenance of the data: ChEMBL document CHEMBL1157650
